Exercise: for every item that follows, state its recorded pEC50.
TESTED SYSTEM: hGIPR (Homo sapiens)
Sequence (P48546 22-466): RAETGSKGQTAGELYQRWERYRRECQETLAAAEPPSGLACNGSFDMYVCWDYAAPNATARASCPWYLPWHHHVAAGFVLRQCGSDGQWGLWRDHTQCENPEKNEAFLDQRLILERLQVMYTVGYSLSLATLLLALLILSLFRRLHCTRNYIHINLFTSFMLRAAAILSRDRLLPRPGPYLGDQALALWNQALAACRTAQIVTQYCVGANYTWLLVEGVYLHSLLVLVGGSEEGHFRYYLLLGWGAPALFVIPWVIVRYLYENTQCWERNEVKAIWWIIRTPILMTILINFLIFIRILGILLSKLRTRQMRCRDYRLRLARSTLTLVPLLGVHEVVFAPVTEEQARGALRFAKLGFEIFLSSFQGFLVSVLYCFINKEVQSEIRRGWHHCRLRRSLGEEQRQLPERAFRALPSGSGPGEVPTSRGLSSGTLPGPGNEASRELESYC
PROCEDURE DETAILS: Functional cAMP activity in the presence of 1% HSA
Assay type: cell-based
EXPERIMENTAL SETUP: read-out: cAMP Rel EC50, hGIPR
Starred links: 1 amine or outer side, 2 acyl side, 3 side chain; linkers in the order of their positions; H or OH if unused. Non-standard residues stand in square brackets, D forms with d. Groups on a side chain read outwards from the residue. No end group written: not given here. *: point of attachment. C20 diacid = O=C(O)CCCCCCCCCCCCCCCCCCC(=O)*; C18 diacid = O=C(O)CCCCCCCCCCCCCCCCC(=O)*; αMePhe(2-F) = C[C@](N)(Cc1ccccc1F)C(=O)O; γGlu = O=C(O)[C@H](CCC(=O)[*:2])N[*:1]; αMe4Pal = C[C@](N)(Cc1ccncc1)C(=O)O; 4Pal = N[C@@H](Cc1ccncc1)C(=O)O; αMeL = CC(C)C[C@](C)(N)C(=O)O; Orn = NCCC[C@H](N)C(=O)O; AEEA = NCCOCCOCC(=O)O; Aib = CC(C)(N)C(=O)O
Give bare numbers, as −log10 of the molar value.

I have 6 substances here; please give me pEC50 for each one.
1. H-Y[Aib]QGTFTSDFS[Orn][αMeL]LDKK([AEEA-AEEA-γGlu-C18 diacid])AQ[Aib]AFIEYLLE[Aib]G[4Pal]SSGAPPPSGE-NH2 [Example 189]
2. Y[Aib]QGTFTSD[4Pal]SQ[αMeL]LDKK([γGlu-γGlu-C18 diacid])AQ[αMe4Pal]AFIE[αMe4Pal]LIE[Aib]GPSSGAPPPSGTE-NH2 [Example 1118]
3. Y[Aib]QGT[αMePhe(2-F)]TSD[4Pal]SILLDKK([γGlu-γGlu-C18 diacid])AQ[Aib]AFIEWLQEGGPSSGAPPPSGTEE-NH2 [Example 578]
4. H-Y[Aib]QGTFTSDFS[Orn][αMeL]LDKK([AEEA-γGlu-C20 diacid])AQ[Aib]AFIEYLLAGGPSSGAPPPSGD-NH2 [Example 81]
5. H-Y[Aib]QGT[αMePhe(2-F)]TSD[4Pal]SILLD[Orn]K([γGlu-γGlu-C18 diacid])AQ[αMe4Pal][Orn]FI[dE]YLIEGGPSSGEPPPSGTEE-NH2 [Example 584]
6. H-Y[Aib]QGTFTSDFS[Orn][αMeL]LDKK([γGlu-γGlu-γGlu-C18 diacid])AQ[Aib]AFIEYLLE[Aib]GPSSGAPPPSGS-NH2 [Example 202]

[7.65, 8.26, 8.43, 7.30, 8.26, 7.93]
